- Tested on: TLR4 (LPS-stimulated NO production, BV-2 mouse microglia cell line)
- test-summary: NO assay: inhibition of LPS-induced NO production in BV-2 microglia (iNOS cellular)
- Format: cell-based
- test-context: Mus musculus; LPS (200 ng/ml), 24 h, BV-2 cells; Table 3
pIC50: −log10 of the molar value.
quantity-name: pIC50

These recorded examples may help you get a feel for the data.
- COc1ccc2c3c1O[C@@H]1C(F)CCC4[C@H](C2)N(CC2CC2)CC[C@]341 (stereo partly drawn): 4.30 to 4.52
- COc1ccc2c3c1O[C@@H]1C(F)CCC4[C@H](C2)N(C(=O)C(C)(C)c2ccccc2)CC[C@]341 (stereo partly drawn): < 5.00

Kindly review the next compound as well.
Q: Enter measured pIC50, system TLR4 (LPS-stimulated NO production, BV-2 mouse microglia cell line), for the compound shown: COc1ccc2c3c1O[C@@H]1C(F)CCC4[C@H](C2)N(C(=O)C2CC2)CC[C@]341 (stereo partly drawn)
A: < 5.00
